target: KRas G12S (Homo sapiens, UniProt P01116, G12S); test: biochemical;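 further: TR-FRET displacement binding to KRas, read after one hour incubation at room temperature, IC50 from four-parameter fit of percent of control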
Sequence (P01116 1-169 isoform P01116-2 G12S): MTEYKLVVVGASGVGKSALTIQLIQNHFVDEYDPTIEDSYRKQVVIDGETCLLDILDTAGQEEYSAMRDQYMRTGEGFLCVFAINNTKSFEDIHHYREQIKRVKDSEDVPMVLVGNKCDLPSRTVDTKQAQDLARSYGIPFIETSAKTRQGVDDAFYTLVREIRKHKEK
pIC50: −log10 of the molar value.
# binarize pIC50: threshold 5 inclusive, high side true (1), low side false (0)

[[record]]
compound = "CCc1c(F)ccc2cc(O)cc(-c3ncc4c(N5CCC[C@@](C)(O)C5)nc(C(=O)NC(C)CN(C)C)nc4c3F)c12 (some centres unmarked) [Example 312]"
assigned_category = "true (1)"

[[record]]
compound = "Fc1c(-c2cccc3cccc(F)c23)ncc2c(NCCCn3ccnn3)nc(OCC34CCCN3CCC4)nc12 [Example 118]"
assigned_category = "true (1)"

[[record]]
compound = "Fc1c(-c2cccc3cccc(F)c23)ncc2c(NCc3ncc4cc[nH]c4n3)nc(OCC34CCCN3CCC4)nc12 [Example 92]"
assigned_category = "true (1)"

[[record]]
compound = "O=C1NCC(CNc2nc(OCC34CCCN3CCC4)nc3c(F)c(-c4cccc5cccc(F)c45)ncc23)O1 (centres unmarked) [Example 110]"
assigned_category = "true (1)"

[[record]]
compound = "Fc1c(-c2cccc3cccc(F)c23)ncc2c(NCCNc3cccnc3)nc(OCC34CCCN3CCC4)nc12 [Example 211]"
assigned_category = "false (0)"

[[record]]
compound = "CCc1c(F)ccc2cc(O)cc(-c3ncc4c(N5CCOC[C@@](C)(O)C5)nc(OCC5(CN6CCCC6)CC5)nc4c3F)c12 [Example 321]"
assigned_category = "true (1)"

[[record]]
compound = "Fc1c(-c2cccc3cccc(F)c23)ncc2c(Nc3cnn(-c4ccncc4)c3)nc(OCC34CCCN3CCC4)nc12 [Example 210]"
assigned_category = "false (0)"

[[record]]
compound = "CCc1cccc2cccc(-c3ncc4c(N5CCOCC(CO)C5)nc(OCC56CCCN5CCC6)nc4c3F)c12 (centres unmarked) [Example 289]"
assigned_category = "true (1)"

[[record]]
compound = "CCc1cccc2cccc(-c3ncc4c(N5CCCC(CS(N)(=O)=O)C5)nc(OCC56CCCN5CCC6)nc4c3F)c12 (centres unmarked) [Example 285]"
assigned_category = "true (1)"

[[record]]
compound = "N#Cc1ccccc1N1CCN(c2nc(OCC34CCCN3CCC4)nc3c(F)c(-c4cccc5cccc(F)c45)ncc23)CC1 [Example 216]"
assigned_category = "false (0)"

[[record]]
compound = "O=S1(=O)CC(CNc2nc(OCC34CCCN3CCC4)nc3c(F)c(-c4cccc5cccc(F)c45)ncc23)C1 [Example 127]"
assigned_category = "true (1)"

[[record]]
compound = "CC1(O)COCCN(c2nc(OCC34CCCN3CCC4)nc3c(F)c(-c4cccc5cccc(F)c45)ncc23)C1 (centres unmarked) [Example 64]"
assigned_category = "true (1)"

